# assaySummary: qHTS assay to identify small molecule agonists of the vitamin D receptor (VDR) signaling pathway - cell viability counter screen (AID 743224); also: nearly all actives have a fitted effect of over 50% in size; also: potency is read from the fitted curve at half-maximal effect
# measurementSetup: VDR-bla HEK293T viability, CellTiter-Glo luminescence, 16 h; series mostly up to 62.6 µM
# Excerpt: U.S. Tox21 Program National Center for Advancing Translational Sciences [NCATS] NIH Chemical Genomics Center [NCGC] U.S. Environmental Protection Agency [EPA] National Institutes of Environmental Health Sciences [NIEHS] National Toxicology Program [NTP] U.S. Food and Drug Administration [FDA] Tox21 Assay Overview: The vitamin D receptor (VDR), a member of nuclear hormone receptor superfamily, plays a critical role in calcium homeostasis and bone metabolism. […]
Results filed as inconclusive are left out. Active and inactive are the calls of the source. Calls follow the shape of the dose curve; as a rule, active = well fitted cell-killing curve with a large enough effect in the repeat runs; inconclusive = weak or mixed curves, or effect the other way; inactive = no such curve, though single readings can be large or run the other way.
recordedMetric: Potency

Worked cases, answers included:
CC(C)(C)OO : inactive
CN(C)[C@@H]1C(=O)C(C(N)=O)=C(O)[C@@]2(O)C(=O)C3=C(O)c4c(O)ccc(Cl)c4[C@@](C)(O)[C@H]3C[C@@H]12 : inactive
CN(C)C(=S)[S-].CN(C)C(=S)[S-].[Cu+2] : 1.5 µM (active)
O=[N+]([O-])c1cc(C(F)(F)F)c(Cl)c([N+](=O)[O-])c1Cl : 12.3 µM (active)
ClCc1ccc(Cl)cc1Cl : inactive

// below: Potency requested for another molecule
Q: Would you kindly share the measured Potency for Clc1ccc(CSC(Cn2ccnc2)c2ccc(Cl)cc2Cl)cc1 (centres undefined) ?
A: 29.8 µM (active)
